measurement_notes: Pharmacokinetics after a single SC or PO dose
Format: in vivo, mouse
experimental_setup: C57BL/6NCRL, mouse, brain/plasma; po 50 mg eq./kg; 0.5 hr; mean (standard deviation), N = 3; read-out: B:P
Description: The pharmacokinetic parameters of 4b following dosing with either 5 mg/kg subcutaneous (sc) injection using the soluble formulation, or 4b per oral (po) by gavage (50 mg/kg in suspension) in mice plasma and whole brain homogenate are shown in Fig. 4 and Table 1. Triplicate dose formulation samples were retained and analyzed to ensure an accurate concentration of 4b was injected. The sc dose was calculated to be on average 84.3% of the 5 mg/kg target dose. […]
readout: Kp at 0.5 hr

>>> print(df.to_string())
                                   compound  obs_value
0  Nc1ccccc1NC(=O)CCCCCC(=O)Nc1ccccc1 [Compound 4b]       0.05
